test system: A549/ATCC NSCLC; assay: NCI-60 one-dose screen, 48 h (100 = growth as untreated, 0 = no growth, -100 = all killed); details: 10 µM unless noted
Compounds without any hit were thinned out: in the full panel of roughly 83,000, 20% have a hit. Calls of active or inactive are those of the source. Rule for the calls: active = growth percent below 10; inactive = the rest.
Parameter growth: see the listing below.

Previously resolved entries follow.
{"compound": "O=C1Cc2ccccc2C(=O)N1", "result": "86.1% (inactive)"}
{"compound": "COc1ccc(CCO)cc1", "result": "92.9% (inactive)"}
{"compound": "O=C(O)Cc1cc(=O)[nH]n(-c2ccccc2)c1=O", "result": "95.6% (inactive)"}
{"compound": "O=C1c2cccnc2-c2ncccc21", "result": "97.7% [100 µM] (inactive)"}

// switching to the query compound
Exam item: Name the recorded growth for Clc1ccc2c(c1)N(C1CCCN(Cc3ccccc3)C1)c1ccccc1S2 (stereo not given) .
Marked response: 35% (inactive)

The reported measurements were obtained from PubChem BioAssay (NCI).
